molecular target: Tyrosinase (Agaricus bisporus, UniProt O42713)
Sequence (O42713 whole entry): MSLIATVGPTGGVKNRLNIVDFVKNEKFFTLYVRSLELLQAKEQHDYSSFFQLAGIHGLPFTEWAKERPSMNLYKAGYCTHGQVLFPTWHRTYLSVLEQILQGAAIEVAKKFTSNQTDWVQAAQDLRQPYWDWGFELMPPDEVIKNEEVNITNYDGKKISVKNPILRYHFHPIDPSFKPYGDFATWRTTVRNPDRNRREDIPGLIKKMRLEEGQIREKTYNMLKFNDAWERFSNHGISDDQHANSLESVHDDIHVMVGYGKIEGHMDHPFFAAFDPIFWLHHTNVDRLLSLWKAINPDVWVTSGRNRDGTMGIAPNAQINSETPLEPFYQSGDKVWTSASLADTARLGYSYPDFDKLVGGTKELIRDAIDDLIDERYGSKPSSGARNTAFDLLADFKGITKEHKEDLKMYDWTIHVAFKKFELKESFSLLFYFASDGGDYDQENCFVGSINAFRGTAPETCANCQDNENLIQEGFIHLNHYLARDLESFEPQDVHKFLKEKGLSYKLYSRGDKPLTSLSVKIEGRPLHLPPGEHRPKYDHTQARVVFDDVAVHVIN
Returns: string. Value is 1 if measured IC50 is below 50 µM, and 0 if it is greater than or equal to it.

[
  {
    "cpd.smiles": "O=C(c1cccc(F)c1)N1CCN(Cc2ccc(F)cc2)CC1",
    "category": 0
  },
  {
    "cpd.smiles": "Cc1ccc(C(=O)N2CCN(Cc3ccc(F)cc3)CC2)cc1",
    "category": 1
  },
  {
    "cpd.smiles": "Fc1ccc(CN2CCNCC2)cc1",
    "category": 0
  },
  {
    "cpd.smiles": "CC(C)C(=O)N1CCN(Cc2ccc(F)cc2)CC1",
    "category": 1
  },
  {
    "cpd.smiles": "COc1cccc(C(=O)N2CCN(Cc3ccc(F)cc3)CC2)c1",
    "category": 1
  },
  {
    "cpd.smiles": "CC(=O)N1CCN(Cc2ccc(F)cc2)CC1",
    "category": 1
  },
  {
    "cpd.smiles": "O=C(c1ccccc1)N1CCC(Cc2ccc(F)cc2)CC1",
    "category": 1
  },
  {
    "cpd.smiles": "COc1ccccc1C(=O)N1CCN(Cc2ccc(F)cc2)CC1",
    "category": 1
  }
]

Next, consider the following molecule.
Problem: Lab note: IC50 threshold 50 µM. Does this molecule come in strictly under it? "Cc1cccc(C(=O)N2CCN(Cc3ccc(F)cc3)CC2)c1"
Solution: 0
